Experiment: in vitro
Conditions: human, 20% fecal homogenate (supernatant), anaerobic, pH 6.8
readout kind: half-life at 20 μM (h)
Just the number in h, nothing appended.

q: Form field: reported half-life at 20 μM of CC(=O)NCCCC[C@H](NC(=O)[C@](C)(CC(C)C)NC(=O)[C@H](Cc1ccc2ccccc2c1)NC(=O)[C@H](Cc1ccc(OCCN)cc1)NC(=O)[C@H]1NC(=O)[C@H](CCC(N)=O)NC(=O)[C@H](Cc2c[nH]c3c(C)cccc23)NC(=O)[C@H]([C@@H](C)O)NC(=O)[C@H](CC(N)=O)NC(=O)[C@@H](NC(C)=O)C(C)(C)SSC1(C)C)C(=O)N[C@@H](CCCNC(N)=O)C(=O)NCCC(N)=O
a: 20

q: Subsequent entry: CC(=O)N[C@H]1CCSC[C@@H](C(=O)N[C@@H](Cc2ccc(OCCN)cc2)C(=O)N[C@@H](Cc2ccc3ccccc3c2)C(=O)NC2(C(=O)N[C@@H](CCC(=O)O)C(=O)N[C@@H](CC(N)=O)C(=O)N[C@@H](CC(N)=O)C(N)=O)CCOCC2)NC(=O)[C@H](CCC(N)=O)NC(=O)[C@H](Cc2c[nH]c3c(C)cccc23)NC(=O)[C@H]([C@@H](C)O)NC(=O)[C@H](CCC(N)=O)NC1=O
a: 1

###

Molecular target: IL-23R (Homo sapiens)
Sequence (Q5VWK5 24-629): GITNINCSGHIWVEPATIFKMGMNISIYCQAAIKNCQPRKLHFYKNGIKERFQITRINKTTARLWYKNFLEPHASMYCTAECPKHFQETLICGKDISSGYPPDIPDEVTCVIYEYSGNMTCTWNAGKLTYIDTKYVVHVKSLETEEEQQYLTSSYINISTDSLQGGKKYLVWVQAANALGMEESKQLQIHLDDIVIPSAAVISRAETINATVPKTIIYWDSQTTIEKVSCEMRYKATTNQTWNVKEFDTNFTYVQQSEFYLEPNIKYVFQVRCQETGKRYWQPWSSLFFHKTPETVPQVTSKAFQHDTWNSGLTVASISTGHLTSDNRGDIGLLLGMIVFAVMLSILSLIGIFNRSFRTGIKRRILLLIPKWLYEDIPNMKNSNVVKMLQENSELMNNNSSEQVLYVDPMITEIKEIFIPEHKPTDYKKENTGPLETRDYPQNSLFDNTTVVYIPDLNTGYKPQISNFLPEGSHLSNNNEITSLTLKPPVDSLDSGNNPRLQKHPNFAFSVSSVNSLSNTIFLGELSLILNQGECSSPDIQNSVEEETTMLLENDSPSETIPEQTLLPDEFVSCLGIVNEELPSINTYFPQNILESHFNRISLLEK
Assay: DB cells IL23R pSTAT3 cell assay (pStat3 HTRF)
Type: cell-based
Conditions: Table E3; DB cells, IL-23 0.5 nM, 30 minutes at 37° C.; read-out: pStat3 HTRF (IC50)
pIC50: −log10 of the molar value.
readout kind: pIC50

q: Form field: reported pIC50 of CC(=O)N[C@@H]1C(=O)N[C@@H](CC(N)=O)C(=O)N[C@@H]([C@@H](C)O)C(=O)N[C@@H](Cc2c[nH]c3c(C)cccc23)C(=O)N[C@@H](CCC(N)=O)C(=O)N[C@H](C(=O)N[C@@H](Cc2ccc(OCCN)cc2)C(=O)N[C@@H](Cc2ccc3ccccc3c2)C(=O)N[C@@](C)(CCCCN)C(=O)N[C@@H](CCC(=O)O)C(=O)N[C@@H](CC(N)=O)C(=O)NCCC(N)=O)C(C)(C)SSC1(C)C
a: 8.00 to 9.00

q: Subsequent entry: CC(=O)NCCCC[C@H](NC(=O)[C@](C)(CC(C)C)NC(=O)[C@H](Cc1ccc2ccccc2c1)NC(=O)[C@H](Cc1ccc(OCCN)cc1)NC(=O)[C@H]1NC(=O)[C@H](CCC(N)=O)NC(=O)[C@H](Cc2c[nH]c3c(C)cccc23)NC(=O)[C@H]([C@@H](C)O)NC(=O)[C@H](CC(N)=O)NC(=O)[C@@H](NC(C)=O)C(C)(C)SSC1(C)C)C(=O)N[C@H](Cc1ccccc1)C(=O)NCCC(N)=O
a: 7.00 to 8.00

q: Subsequent entry: CC(=O)NCCCC[C@@H]1NC(=O)[C@H](Cc2c[nH]c3c(C)cccc23)NC(=O)[C@H]([C@@H](C)O)NC(=O)[C@H](CC(N)=O)NC(=O)[C@@H](NC(C)=O)C(C)(C)SSC(C)(C)[C@@H](C(=O)N[C@@H](Cc2ccc(OCCN)cc2)C(=O)N[C@@H](Cc2ccc3ccccc3c2)C(=O)N[C@@](C)(CCCCN)C(=O)N[C@@H](CCCCNC(C)=O)C(=O)N[C@@H](CC(N)=O)C(=O)NCCC(N)=O)NC1=O
a: > 9.00

Cited source: patent US20260116921A1
